Data provenance is patent US20170152241A9.

- target.desc: UniProt Q13639
- Sequence (Q13639 1-387 isoform Q13639-2): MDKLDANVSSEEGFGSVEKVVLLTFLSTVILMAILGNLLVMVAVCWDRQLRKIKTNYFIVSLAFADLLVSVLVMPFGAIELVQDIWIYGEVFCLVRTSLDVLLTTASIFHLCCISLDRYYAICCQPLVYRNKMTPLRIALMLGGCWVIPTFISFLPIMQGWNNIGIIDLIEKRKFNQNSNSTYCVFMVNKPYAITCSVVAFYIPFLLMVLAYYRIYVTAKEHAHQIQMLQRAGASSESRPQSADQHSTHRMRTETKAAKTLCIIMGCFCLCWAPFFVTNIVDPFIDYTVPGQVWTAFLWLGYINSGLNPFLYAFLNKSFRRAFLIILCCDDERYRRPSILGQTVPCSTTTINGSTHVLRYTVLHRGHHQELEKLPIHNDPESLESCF
- experiment.description: Evaluation of agonistic activity in CHO-K1 cells expressing human 5-HT4(a) (GeneBlAzer HTR4-CRE-bla, beta-lactamase reporter)
- condition.notes: 5 hours incubation, 8 concentrations
Structures can show the parent of a compound that is named as a salt.
metric.name: pEC50
// pEC50: -log10(molar conc.)

INPUT: Any idea what pEC50 was measured for CC(=O)N[C@H]1CCN(c2nc(Nc3ccc(Cl)c(N)c3)nc3ccccc23)C1 [Example 133] ?
OUTPUT: 10.52

INPUT: Any idea what pEC50 was measured for CC(=O)N[C@H]1CCN(c2nc(Nc3cc(N)cc(C#N)c3)nc3c2CCCC3)C1 [Example 88] ?
OUTPUT: 11.00

INPUT: Any idea what pEC50 was measured for N#Cc1cc(N)cc(Nc2nc3c(c(N4CCC[C@@H](N)C4)n2)CCC3)c1 [Example 199, dihydrochloride] ?
OUTPUT: 10.70

INPUT: Any idea what pEC50 was measured for CNC(=O)[C@@H]1CCCN(c2nc(Nc3ccc(N)c([N+](=O)[O-])c3)nc3c2CCC3)C1 [Example 224, hydrochloride] ?
OUTPUT: 11.06

INPUT: Any idea what pEC50 was measured for N#Cc1cc(N)cc(Nc2nc3c(c(N4CC[C@H](N)C4)n2)CCC3)c1 [Example 174, dihydrochloride] ?
OUTPUT: 10.70

INPUT: Any idea what pEC50 was measured for CN[C@@H]1CCCN(c2nc(Nc3cc(N)cc(C(F)(F)F)c3)nc3c2CCCC3)C1 [Example 213, dihydrochloride] ?
OUTPUT: 10.80

INPUT: Any idea what pEC50 was measured for COc1ccc2c(N3CC[C@H](NC(C)=O)C3)nc(Nc3cc(N)cc(C#N)c3)nc2c1 [Example 147] ?
OUTPUT: 11.00

INPUT: Any idea what pEC50 was measured for COc1ccc2nc(Nc3cc(N)cc(C#N)c3)nc(N3CCC[C@@H](NC(C)=O)C3)c2c1 [Example 21] ?
OUTPUT: 11.00

INPUT: Any idea what pEC50 was measured for CCCCCN[C@H]1CCN(c2nc(Nc3cc(N)cc(C#N)c3)nc3ccccc23)C1 [Example 41] ?
OUTPUT: 11.62

INPUT: Any idea what pEC50 was measured for CN[C@H]1CCN(c2nc(Nc3cc(N)cc(C#N)c3)nc3cccc(C)c23)C1 [Example 68] ?
OUTPUT: 10.10

INPUT: Any idea what pEC50 was measured for N#Cc1cc(N)cc(Nc2nc(N3CC[C@H](N)C3)c3ccccc3n2)c1 [Example 31, dihydrochloride] ?
OUTPUT: 10.52

INPUT: Any idea what pEC50 was measured for CC(=O)N[C@@H]1CCCN(c2nc(Nc3ccc(N)c(C(F)(F)F)c3)nc3c(C)cccc23)C1 [Example 80, hydrochloride] ?
OUTPUT: 10.40

INPUT: Any idea what pEC50 was measured for CCN[C@H]1CCN(c2nc(Nc3cc(N)cc(C#N)c3)nc3c2CCCC3)C1 [Example 105, dihydrochloride] ?
OUTPUT: 11.00

INPUT: Any idea what pEC50 was measured for COc1cccc2c(N3CCC[C@@H](NC(C)=O)C3)nc(Nc3cc(N)cc(C(F)(F)F)c3)nc12 [Example 64] ?
OUTPUT: 10.52
